Assayed system: T1, cynomolgus ROR1 on CHO-K1-cynoROR1 cells (cynomolgus monkey, UniProt A0A2K5WTX7 30-937)
T1 construct: whole, on cells
Experiment summary: flow cytometry, CHO-K1-cynoROR1 cells
Would you kindly list EC50 for each of these binders?
Hi! Could you send only the number? It should be in µg/mL, unit omitted.

Which value of EC50 has been reported for PR303125 (antibody, human IgG1, V domains shown, HCAb (heavy chain-only, human IgG1 Fc), no light chain) VH: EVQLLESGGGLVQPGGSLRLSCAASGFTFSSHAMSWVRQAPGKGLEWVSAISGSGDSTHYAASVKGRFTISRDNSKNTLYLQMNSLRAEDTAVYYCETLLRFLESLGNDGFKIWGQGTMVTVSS in the records?
0.222

Which value of EC50 has been reported for PR303145 (antibody, human IgG1, V domains shown, HCAb (heavy chain-only, human IgG1 Fc), no light chain) VH: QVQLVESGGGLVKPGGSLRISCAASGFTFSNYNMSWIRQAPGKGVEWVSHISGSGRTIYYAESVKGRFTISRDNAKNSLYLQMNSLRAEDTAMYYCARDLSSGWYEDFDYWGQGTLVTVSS in the records?
0.474

Which value of EC50 has been reported for PR303189 (antibody, human IgG1, V domains shown, HCAb (heavy chain-only, human IgG1 Fc), no light chain) VH: EVQLVESGGGLVKPGGSLRLSCAASGFNLSDSYMSWIRQAPGKGLEWVSCISSSGSTIYYADSVKGRFTVSRDNAKNSLYLQMNHLRAEDTALYYCARDCVIGIRDDSDIWGQGTMVTVSS in the records?
7.53

Which value of EC50 has been reported for PR303191 (antibody, human IgG1, V domains shown, HCAb (heavy chain-only, human IgG1 Fc), no light chain) VH: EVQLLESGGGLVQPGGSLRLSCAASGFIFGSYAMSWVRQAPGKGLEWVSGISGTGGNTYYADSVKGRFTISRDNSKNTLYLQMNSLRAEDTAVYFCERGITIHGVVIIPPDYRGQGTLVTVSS in the records?
0.03
